- System: PfAP2-LT AP2 domain (GST-tagged)
- assay: gcPBM binding intensity (ln(normalized median fluorescence intensity)); higher = stronger DNA binding
In all, about 25,000 sequences were measured (“ln(normalized median fluorescence intensity)”: median about 8.9, highest 2% from about 10 on). This excerpt belongs to a sample that is enriched for the highest values.
observed property: gcPBM binding intensity (ln)
Answers are plain numbers.

Reference set, count: 6
ATCTCTATGATATATACACACAAATATACAAAAAAA [CACACA_site6605]
8.96
AAAAATAAAAATTGCACACTAAAAAATTACGCACGA [CACACA_site3418]
8.94
ATATATATATATATATGTACATATGTCAACTGTCTA [XGTACX_site8636]
10.1
GATAATTATGGACACACACACACACCCACAACTAAA [CACACA_site8824]
10.2
AAGATAATTACGCACACACACACACGCCCACAACTA [CACACA_site7255]
10.4
ATATATATATATGTCTGTACATAAAAAATAATAAAT [XGTACX_site3122]
8.97

Quick batch: gcPBM binding intensity (ln) for everything below.
1. TTACACAAGGATAAAAACATATGTATGATTATATAT [CACACA_negctrl_site654]
2. AATAAATAAGCACATACACACATACATACATACATA [CACACA_site6075]
3. TTTATACATACATTCGTGCACATACGTATAACATAT

a:
1. 8.89
2. 9.54
3. 9.07
